Exercise: state measured TGI for each of the molecules provided.
test system: HCC-2998 colon; experiment: NCI tumour cell line growth inhibition, 48 h

Answered cases to consult:
molecule=O=c1cc(CSc2c(-c3ccccc3)c(=O)n(-c3ccccc3)c(=S)n2-c2ccccc2)[nH]c(=O)[nH]1 assay_metric=TGI measurement="> 100 µM"
molecule=CCOC(=O)CCSc1nc2ccc(I)cc2c(=O)n1Cc1ccccc1 assay_metric=TGI measurement="> 71.2 µM"
molecule=COC(=O)c1ccccc1N1C(=O)Cc2ccccc2C1=O assay_metric=TGI measurement="> 100 µM"

Hi team, please reply with TGI for each item in this list.
1. CC(=O)Oc1ccc2cc(Oc3ccc(Cl)c(Cl)c3)c(=O)oc2c1
2. COc1cc(C(=O)N2CCN(c3ccccc3)CC2)c2ccccc2n1
3. CCN(CC)CCN(C(=Nc1ccccc1)N1CCCCC1)c1ccccc1
4. COc1cc(-c2oc3c(OC)cc(OC)c(O)c3c(=O)c2OC)cc(OC)c1OC
5. COc1cc(C2c3cc4c(cc3[C@H](NS(C)(=O)=O)C3COC(=O)[C@H]23)OCO4)cc(OC)c1OC (some centres undefined)

39.6 µM
0.486 µM
19.9 µM
> 100 µM
> 100 µM

For every item below, please supply its TGI.
1. CC(Oc1ccccc1Cl)C(=O)NN1C(=O)CC(=O)NC1=S (centres undefined)
2. Cc1cc(C)n(-c2ccnc3cc(Cl)ccc23)n1
3. Cn1ncc2c(Nc3cccc(Cl)c3)nc(Nc3cccc(Cl)c3)nc21
4. CN(C)CCNC(=O)c1cccc2c(NC(CS)C(=O)O)c3ccccc3[n+](C)c12 (centres undefined)

> 100 µM
> 100 µM
27.6 µM
> 100 µM

For every listed record, write down its TGI.
1. O=C(SC1=NCCN1)c1cccc2ccccc12
2. O=C(NNC1=NCCCCN1)Nc1ccc(Cl)cc1

1: > 100 µM; 2: > 100 µM

###

Can you tell me TGI for the items I'm about to list?
system: A498 renal; experiment: NCI tumour cell line growth inhibition, 48 h

compound="CCCCC(C(=O)CCC(=O)Nc1ccc(Cl)c(Cl)c1)C(=O)C(C)C (stereo not given)" target="A498 renal" assay_metric=TGI measurement="> 100 µM"

Report TGI for every entry below.
1. CC1=NNC(=O)C1C1CC(c2c[nH]c3ccccc23)=NN(C(N)=O)C1=O (stereo not given)
2. COc1cccc(/C=N/NC(=O)c2ccccc2N2CCCC2)c1O
3. COc1ccc2[nH]cc(C(=O)C(=O)NC34CC5CC(CC(C5)C3)C4)c2c1
4. CC1(Br)CC2OC3(Br)C=CC(C)(O)C2(CC1=O)C3(C)C (stereo not given)
5. CC1(C)C2CC(O)C1CCC2=O (stereo not given)

["> 100 µM", "> 100 µM", "> 76.1 µM", "> 100 µM", "> 100 µM"]

// for each compound below, give its TGI
1. N#Cc1cc([N+](=O)[O-])ccc1NC(=O)/C(=N\NC(=O)c1ccncc1)C(c1cnc2ccc([N+](=O)[O-])cc2n1)[N+](=O)[O-] (stereo not given)
2. Cc1ccc(NC(=O)c2cc3ccccc3c(N=Nc3cc(S(=O)(=O)O)ccc3O)c2O)c(C)c1
3. Clc1ccc(C(Cc2cccc(Cl)c2)c2c(Cl)nc(N3CCNCC3)nc2Cl)cc1 (stereo not given)
4. O=C1[C@@H]2C(c3ccccc3[N+](=O)[O-])=[N+](c3ccccc3)O[C@@H]2C(=O)N1c1ccc(Cc2ccc(N3C(=O)[C@H]4C(c5ccccc5[N+](=O)[O-])=[N+](c5ccccc5)O[C@H]4C3=O)cc2)cc1

1: 17.7 µM; 2: > 100 µM; 3: 28.5 µM; 4: > 100 µM

###

tested on: UACC-257 melanoma; experiment: NCI tumour cell line growth inhibition, 48 h
Exercise: for every item that follows, state its recorded TGI.

Consider the worked cases shown below.
compound=CC1(C)CC(=O)C2=C(C1)NC1=C(C2)C(=O)CC(C)(C)C1 target="UACC-257 melanoma" assay_metric=TGI measurement="> 100 µM"
compound=O=C(CCCN1CCC2(CC1)CC(=O)N(N1CCOCC1)C2=O)c1ccc(F)cc1 target="UACC-257 melanoma" assay_metric=TGI measurement="> 100 µM"
compound="CCOC(=O)NC/C=C/COC1CCCCO1 (stereo not drawn)" target="UACC-257 melanoma" assay_metric=TGI measurement="> 100 µM"
compound=CCCCCCCCC/C(=N\NC(=O)c1ccncc1)c1ccc(O)c(O)c1O target="UACC-257 melanoma" assay_metric=TGI measurement="9.32 µM"
compound=COc1cc2c(cc1OCCCOS(C)(=O)=O)N=C[C@@H]1CCCN1C2=O target="UACC-257 melanoma" assay_metric=TGI measurement="> 100 µM"
compound=O=[N+]([O-])c1ccc(C2=Nn3c(nnc3-c3ccc(Cl)cc3)SC2)o1 target="UACC-257 melanoma" assay_metric=TGI measurement="16.9 µM"

Please state TGI for every compound in the list that follows.
1. NC(=O)/C(=N\NC(=O)C[n+]1ccccc1)C1NC(=O)NC1=O (stereo not drawn)
2. CCCCCCCCCCCCSC1=C(Cl)C(=O)C(OC)=C(OC)C1=O
3. CCC(O)C1Cc2c(C)cc3c(c2O1)C(=O)c1ccccc1C3=O (stereo not drawn)
4. Cn1c(=O)c2c(nc3sc4c(n32)C(=O)c2c(O)ccc(O)c2C4=O)n(C)c1=O
5. O=C1/C(=C/c2ccco2)N=C2Sc3c(nc[nH]c3=O)N12
6. C/C(=N\NC(=S)N(C)C)c1nc2ncccc2[nH]1
7. CCCCCCCCCCCC(=O)N1CCN(C(C)=O)CC1
8. CC/C(=C(/c1ccc(O)cc1)c1ccc(OCCN)cc1)c1ccccc1

1: > 100 µM; 2: 27.6 µM; 3: > 100 µM; 4: 28.5 µM; 5: > 100 µM; 6: 64.5 µM; 7: 36.9 µM; 8: 22.7 µM

###

system: MCF7 breast; assay: NCI tumour cell line growth inhibition, 48 h
ASSAY METRIC: TGI

compound="COc1ccc(-c2c3c(n(C4OC(COC(C)=O)C(OC(C)=O)C(OC(C)=O)C4OC(C)=O)c(=S)c2C#N)CCC3)cc1 (centres undefined)" target="MCF7 breast" measurement="> 100 µM"

Look up TGI for the entries below, preserving their order.
1. Cn1ccc(C(=O)NCCN(CCNC(=O)c2ccn(C)c(=O)c2O)CCNC(=O)c2ccn(C)c(=O)c2O)c(O)c1=O
2. NC(N)=NC(N)=Nc1cnccn1
3. O=C1/C(=C/c2ccco2)N=C2Sc3c(nc[nH]c3=O)N12
4. CC(=O)Nc1c(I)c(NC(C)=O)c(I)c(C(=O)O)c1I
5. Cc1cc(Nc2ncc3c(n2)N(C)C(=O)N(c2cc(NC(=O)c4cccc(C(F)(F)F)c4)ccc2C)C3)n(C)n1
6. Cc1ccc(N=NC(=Nc2ccc(Cl)cc2)c2ccc(N(CCC#N)CCC#N)cc2)cc1
7. COC(=O)C(C)(C)[C@@H]1OC(=O)N(S(=O)(=O)c2c(C)cc(C)cc2C)[C@H]1C(C)C

1. > 100 µM
2. > 100 µM
3. > 100 µM
4. > 100 µM
5. > 46.4 µM
6. > 100 µM
7. > 100 µM

Data request, read-out TGI, for CCOC(=O)Nc1nc2ccc(Br)cc2s1
> 50 µM
